assayedSystem: T1, recombinant human CTLA4-his protein (Acro biosystems, Cat#CT4-H5229) (human, UniProt P16410 37-162)
T1 construct: bought recombinant protein; not shown: his tag
T1 sequence (looked up): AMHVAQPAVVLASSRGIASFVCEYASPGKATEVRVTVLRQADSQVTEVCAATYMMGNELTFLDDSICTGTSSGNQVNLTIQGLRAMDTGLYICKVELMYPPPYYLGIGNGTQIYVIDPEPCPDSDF
testProtocol: SPR, Biacore T200; antibody captured, CTLA4-his as analyte
metricName: koff (s⁻¹)
Write the value in s⁻¹ as a bare number.

Some entries whose results are on file:
binder	koff [s⁻¹]
mouse anti-CTLA4 monoclonal antibody D2A4 (antibody, V domains shown, mouse mAb purified from hybridoma supernatant) VH: QVQLQQPGAELVKPGSSVNLSCKASGYTFTSYWVHWVKQGPGRGLEWIGRIDPNRGGTYYNENFKTKAALTVDSPSSTAYMHLSSLTSEDSAVYYCARGGLNYYALDYWGQGTSVTVSS VL: DIQMTQSPASLFASLGETVTITCRASENIYSYLAWYQQKQGKSPQLLVYNANTLTEGVPSSFSGSGSGTQFSLKINTLQPEDFGTYYCQHHYGIPFTFGSGTKLEIK	0.00153
mouse anti-CTLA4 monoclonal antibody D1H4 (antibody, V domains shown, mouse mAb purified from hybridoma supernatant) VH: EVQLQQSGPVLVKPGASVKMSCKASGYTFTDYYMNWVKQSHGKSLEWIGAINPDHGGSSYNQKFKGKATLTVDKSSSTAYMELNSLTSEDSAVYYCARDGSIHYVMDDWGQGTSVTVSS VL: DIVMSQSPSSLTVSAGDKVTMSCKSSQSLLHSGNQKNYLAWYQQKPWQPPKLLIYGASTRESGVPDRFTGSGSGTDFTLTISSVQAEDLAVYYCQNDYGYPYTFGGGTKLEIK	0.000321

Consider the additional binder presented here.
Query: koff; subject: mouse anti-CTLA4 monoclonal antibody C1G4 (antibody, V domains shown, mouse mAb purified from hybridoma supernatant) VH: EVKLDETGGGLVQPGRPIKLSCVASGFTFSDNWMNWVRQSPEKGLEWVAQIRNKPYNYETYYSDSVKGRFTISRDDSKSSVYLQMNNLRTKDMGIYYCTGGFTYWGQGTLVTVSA VL: DIQMTQSPPSLSASVGETVTITCGASENIYGGLNWYQRKQGKSPQLLIYGATNLADGMSSRFSGSGSGRQYSLKISRLHPDDVATYYCQNVLNTPYTFGGGTKLEIK 0.000513
